- System: Fibroblast
- Assay: Multiplex assay against human fibroblast
- Format: toxicity, cell-based
- Condition parameters: 48 h, 1 µM, compound concentration 1 uM, replicate 1
Consider the following compounds; for each one, report its Total Cell Count.
Hey, just send me the number, nothing else.

Q: # get_value(readout='Total Cell Count', item= Cc1cccc(CN2CCN(C(c3ccccc3)c3ccc(Cl)cc3)CC2)c1.Cl.Cl (stereo unspecified) )
A: 136

Q: # get_value(readout='Total Cell Count', item= CCc1ccc(OCc2ccccc2C(=O)Nc2ccc3nc(C)cc(N)c3c2)cc1.Cl )
A: 157

Q: # get_value(readout='Total Cell Count', item= CC(C)c1noc(N2CCC(COc3ccc(-c4ccc(S(C)(=O)=O)cc4)nc3)CC2)n1 [GSK-1292263] )
A: 100

Q: # get_value(readout='Total Cell Count', item= Cc1ccccc1C(c1ccccc1C)N1C2CCC1CC(O)(c1ccccc1)C2 (stereo unspecified) )
A: 121

Q: # get_value(readout='Total Cell Count', item= COc1cc2ncn(-c3cc(OCc4ccccc4C(F)(F)F)c(C(N)=O)s3)c2cc1OC [GW843682X] )
A: 130

Q: # get_value(readout='Total Cell Count', item= O=C(c1cc2c(cc1F)OC(c1ccc(F)cc1)(c1ccc(Cl)cc1Cl)O2)N1CCOCC1 (stereo unspecified) )
A: 119

Q: # get_value(readout='Total Cell Count', item= CC(C)NC(=O)N1CC[C@H](NC2=Nc3cc(F)ccc3N(CC(F)F)c3ccc(Cl)cc32)C1 )
A: 83

Q: # get_value(readout='Total Cell Count', item= CC(C)Oc1ccccc1C(=O)Nc1ccccc1C(=O)Nc1cccc(S(=O)(=O)C(F)(F)F)c1 )
A: 163

Q: # get_value(readout='Total Cell Count', item= CC(C)OC(=O)N1CCC(Oc2ncnc3c2cnn3-c2ccc(S(C)(=O)=O)cc2F)CC1 )
A: 99

Q: # get_value(readout='Total Cell Count', item= CCCSc1nc(N[C@@H]2C[C@H]2c2ccc(F)c(F)c2)c2nnn([C@@H]3C[C@H](OCCO)[C@@H](O)[C@H]3O)c2n1 [TICAGRELOR] )
A: 167

Q: # get_value(readout='Total Cell Count', item= CC1=C(C(=O)Nc2cc3cn[nH]c3cc2F)C(c2ccc(C(F)(F)F)cc2)CC(=O)N1 (stereo unspecified) )
A: 131
